Would you mind telling me the reported GI50 of each entry?
# Test system: OVCAR-4 ovarian
# TEST PROTOCOL: NCI tumour cell line growth inhibition, 48 h

Data request: What does the record list as GI50 for CNCC1CCn2c(c(C3=C(c4cn(C)c5ccccc45)C(=O)NC3=O)c3ccccc32)C1 (stereo unspecified) ?
Data returned: 4.17 µM

Data request: What does the record list as GI50 for NC(=S)N=Nc1c(O)[nH]c2ccccc12 ?
Data returned: 239 µM

Data request: What does the record list as GI50 for Nc1nc(N)c(-c2ccc(Cl)cc2)c(/C=C/c2ccc([N+](=O)[O-])cc2)n1 ?
Data returned: 4.54 µM

Data request: What does the record list as GI50 for CN1CCN(Cc2ccc(NC(=O)c3[nH]ncc3Nc3cc(OC4CCCC4)ncn3)cc2)CC1 ?
Data returned: 2.07 µM

Data request: What does the record list as GI50 for O=C(N/N=C/c1cccc(O)c1)c1ccc(C(F)(F)F)nc1Nc1cccc(C(F)(F)F)c1 ?
Data returned: 0.955 µM

Data request: What does the record list as GI50 for COc1ccc(OC)c(/C=C/C(=O)c2ccc3cc(OC)ccc3c2)c1 ?
Data returned: 10.8 µM

Data request: What does the record list as GI50 for COC(=O)[C@]1(C)CC[C@]2(C)CC[C@]3(C)C(=CC(=O)[C@@H]4[C@@]5(C)CCC(=O)NC(C)(C)[C@@H]5CC[C@]43C)[C@@H]2C1 ?
Data returned: 27.6 µM

Data request: What does the record list as GI50 for CN1C(=O)C(C)(C)Oc2c(-c3cn(C)c(=O)c4[nH]ccc34)cc(S(C)(=O)=O)cc21 ?
Data returned: 0.741 µM

Data request: What does the record list as GI50 for CC1CC2(C)CC(=O)C1C1C(=O)N(CCN3CCOCC3)C(=O)C12 (stereo unspecified) ?
Data returned: > 100 µM

Data request: What does the record list as GI50 for Cn1c(=O)c2[nH]cnc2n(C)c1=O.[CH2-]C(Cc1cccc2cc(C(=O)O)c(=O)oc12)OC.[Hg+2].[OH-] (stereo unspecified) ?
Data returned: 17.9 µM

Data request: What does the record list as GI50 for COc1ccc2c(c1)O/C(=C\c1ccc([N+](=O)[O-])s1)C2=O ?
Data returned: 1.59 µM

* * *

# Tested on: MDA-MB-435
# TEST PROTOCOL: NCI tumour cell line growth inhibition, 48 h
RESULT TYPE: TGI (µM)
Respond with the bare value in µM.

Data request: What does the record list as TGI for O=C(Nc1ccc(N2CCNCC2)cn1)c1[nH]ncc1Nc1ncnc2sc3c(c12)CCC3 ?
Data returned: 2.67

Data request: What does the record list as TGI for CCCCCCCCCCCCCCCC(N)c1ccccc1 (configuration not stated) ?
Data returned: 3.04

Data request: What does the record list as TGI for O[C@H]1[C@@H]2OC[C@@H](O)[C@H](OCc3ccccc3)[C@@](COCc3ccccc3)(O2)[C@@H]1OCc1ccccc1 ?
Data returned: 32.1

Data request: What does the record list as TGI for O=c1ccc2nc3ccc(O)cc3oc-2c1 ?
Data returned: 3.23

Data request: What does the record list as TGI for N#C/C=C\c1ccc(-c2cc(C(F)(F)F)cc(C(F)(F)F)c2)o1 ?
Data returned: 18.5

Data request: What does the record list as TGI for NC(N)=N/N=C/c1ccc(Br)cc1 ?
Data returned: 3.81

Data request: What does the record list as TGI for Cn1c2c(c3c(=O)[nH]ncc31)CCCc1ccccc1-2 ?
Data returned: 50.4

Data request: What does the record list as TGI for Nc1c(O)c(C(=O)O)cc2ccccc12 ?
Data returned: 33.4

Data request: What does the record list as TGI for O=S1(=O)C=C(c2ccccc2)C(c2ccccc2)=C1 ?
Data returned: 3.33

Data request: What does the record list as TGI for Cn1c(=O)c2[nH]cnc2n(C)c1=O.[CH2-]C(Cc1cccc2cc(C(=O)O)c(=O)oc12)OC.[Hg+2].[OH-] (configuration not stated) ?
Data returned: 30.6

Data request: What does the record list as TGI for O=c1cc(-c2cccc(Br)c2)[nH]c2cc3c(cc12)OCO3 ?
Data returned: 3.02

Data request: What does the record list as TGI for COc1ccc2c(c1)NC(=O)CN2c1nc(C)nc2ccccc12 ?
Data returned: 0.000484

Data request: What does the record list as TGI for COC(=O)CCc1c(/C=C2\N=C(c3ccc[nH]3)C=C2OC)[nH]c(C)c1C(=O)OCc1ccccc1 ?
Data returned: 2.25

Data request: What does the record list as TGI for COc1cc(C2S/C(=C/c3ccccc3)C(=O)N2c2ccccn2)cc(OC)c1OC (configuration not stated) ?
Data returned: 29.3

Data request: What does the record list as TGI for CNCC1CCn2c(c(C3=C(c4cn(C)c5ccccc45)C(=O)NC3=O)c3ccccc32)C1 (configuration not stated) ?
Data returned: 5.94

Data request: What does the record list as TGI for Cc1ccc(C)c(C(=N)c2ccccc2Cc2ccccc2)c1 ?
Data returned: 47.2

Data request: What does the record list as TGI for CCN1C(=O)N(CC)C2C1NN=c1s/c(=C\c3cnc(C)n3C)c(=O)n12 (configuration not stated) ?
Data returned: 1.36

Data request: What does the record list as TGI for NC(N)=N/N=C/c1c(-c2ccc(Cl)cc2)nc2n1CCS2 ?
Data returned: 25.6
